System: MT4
Assay: Concentration required to inhibit syncytia formation by 50% in HIV infected HIV-BRU MT-4 cells
Assay type: functional, cell-based, Homo sapiens
Settings: Homo sapiens, MT4; read-out: IC50
Assign IC50 to each entry below.
Numbers only, in µM.

Parameter requested: IC50. Apply to each item below.
1. O=C1CCN(C(=O)[C@H](Cc2ccccc2)NC(=O)c2cccnc2)C1
2. O=C1CCN(C(=O)[C@H](Cc2ccccc2)NC(=O)c2ccc3ccccc3n2)C1
3. O=C1CCN(C(=O)[C@H](Cc2ccccc2)NC(=O)OCc2ccccc2)C1
4. CC(C)(C)OC(=O)N[C@@H](Cc1ccccc1)C(=O)N1CCC(=O)C1
5. CC(C)(C)OC(=O)N[C@@H](Cc1ccccc1)C(=O)N1CCC(O)C1 (stereo not given in full)

// result
[0.1, 10, 1, 10, 50]

---

Assay: Partition coefficient (logP)
Assay type: physicochemical
Conditions: octanol/water
Peptide text beside a SMILES is read from it. * marks the point of attachment. Boc = CC(C)(C)OC(=O)*
Assign logP to each entry below.
Answers are plain numbers.

COMPOUND | logP
O=C1CCN(C(=O)[C@H](Cc2ccccc2)NC(=O)OCc2ccccc2)C1 | 3.97
O=C1CCN(C(=O)[C@H](Cc2ccccc2)NC(=O)c2cccnc2)C1 | 2.31
CC(C)(C)OC(=O)N[C@@H](Cc1ccccc1)C(=O)N1CCC(O)C1 (stereo not given in full) | 3.15
CCCCCCCCOC(=O)N[C@@H](Cc1ccccc1)C(=O)N1CCC(=O)C1 | 5.38
CN(C(=O)N[C@@H](Cc1ccccc1)C(=O)N1CCC(=O)C1)c1ccccc1 | 3.33
O=C1CCN(C(=O)[C@H](Cc2ccccc2)NC(=O)c2ccc3ccccc3n2)C1 | 3.44

Parameter requested: logP. Apply to each item below.
1. CC(C)(C)OC(=O)N[C@@H](Cc1ccccc1)C(=O)N1CCC(=O)C1
2. O=C1CCN(C(=O)[C@H](Cc2ccccc2)NC(=O)N(c2ccccc2)c2ccccc2)C1
3. O=C1CCN(C(=O)[C@H](Cc2ccccc2)NC(=O)c2ccccc2)C1
4. CC(C)(C)OC(=O)N[C@@H](Cc1ccccc1)C(=O)N1CCC[C@H]1C(=O)O (Boc-Phe-Pro-OH)

// result
3.97
4.86
3.17
3.96
